Data provenance: ChEMBL document CHEMBL1143010

Collected Ratio IC50 values appear next to each entry.
system: MCF7; experiment: Resistance index, IC50 for doxorubicin-resistant human MCF7 cells/IC50 for doxorubicin-sensitive human MCF7 cells; type: ADME, cell-based
// response body must contain only the number

The following molecules have reported results that may help.
O=C1C2=C(C(=O)c3ccccc31)[C@@]1(CS2)NC(=O)[C@H]2CCCN2C1=O : 1.1
O=C1C2=C(C(=O)c3ccccc31)[C@@]1(CS2)NC(=O)[C@H](CS)NC1=O : 1.1

Prompt line: Tell us which Ratio IC50 value is on record for O=C1C2=C(C(=O)c3ccccc31)[C@]1(CS2)NC(=O)[C@H](CS)NC1=O
Response line: 2.8

Prompt line: Consider the molecule CSCC[C@@H]1NC(=O)[C@@]2(CSC3=C2C(=O)c2ccccc2C3=O)NC1=O . State its measured Ratio IC50.
Response line: 2.8

Prompt line: Output Ratio IC50 of O=C1C2=C(C(=O)c3ccccc31)[C@]1(CS2)NC(=O)[C@H]2CCCN2C1=O
Response line: 2.4
